Header: Ki / Coagulation factor X (Homo sapiens) / multiple publications

{"molecule": "COC(=O)[C@H]1CCCCN1C(=O)[C@H](Cc1cccc(C(=N)N)c1)NS(=O)(=O)c1cccc(NC(=O)CCN)c1", "operatorSymbol": "=", "Ki, nM": 100}
{"molecule": "CC1(C)[C@@H]2C[C@H]3OB([C@H](CCCCN)NC(=O)Cn4nc(CC#N)nc4Cc4ccccc4)O[C@@]3(C)[C@H]1C2", "operatorSymbol": ">", "Ki, nM": 6000}
{"molecule": "CCOC(=O)[C@@H]1CCCCC1NC(=O)C(Cc1ccccc1)c1coc2ccc(C(=N)N)cc12 (stereo partly drawn)", "operatorSymbol": "=", "Ki, nM": 270}
{"molecule": "CC(=N)N1CCC(Oc2ccc(C(Cc3ccc4ccc(C(=N)N)cc4c3)C(=O)O)cc2)CC1 (stereo not drawn)", "operatorSymbol": "=", "Ki, nM": 13}
{"molecule": "COC(=O)OC[C@@H](NS(=O)(=O)Cc1ccccc1)C(=O)NCC(=O)NCc1ccc(C(=N)N)cc1", "operatorSymbol": "=", "Ki, nM": 340}
{"molecule": "CC(=C(F)C(=O)Nc1ccc(-c2ccccc2S(N)(=O)=O)cc1Cl)c1ccc(F)c(C(=N)N)c1", "operatorSymbol": "=", "Ki, nM": 0.18}
{"molecule": "CCCNCc1sc(C(=O)Nc2ccc(Cl)cc2C(=O)Nc2ccc(Cl)cc2)c(Cl)c1CNCCC", "operatorSymbol": "=", "Ki, nM": 7.5}
{"molecule": "O=C(CN1CCN(S(=O)(=O)c2cc3ccc(Cl)cc3s2)CC1=O)NCCc1ccccn1", "operatorSymbol": "=", "Ki, nM": 140}

* * *

Header: Ki / UniProt P00742 / multiple publications

{"compound": "COC(=O)c1ccc(NC(=O)c2cc(C)ccc2NC(=O)c2sc3ccccc3c2Cl)cc1", "quantityUnit": "nM", "operatorSymbol": ">", "Ki": 5000}
{"compound": "CCOc1ccc(-c2cccc(S(=O)(=O)N[C@@H](Cc3cccc(C(=N)N)c3)C(=O)N3CCC(CCN)CC3)c2)c(Cl)c1", "quantityUnit": "nM", "operatorSymbol": "=", "Ki": 170}
{"compound": "Cc1c(CN2CCN(C)CC2)sc(C(=O)Nc2ccc(Cl)cc2C(=O)Nc2ccc(Cl)cc2)c1Cl", "quantityUnit": "nM", "operatorSymbol": "=", "Ki": 10}
{"compound": "CNC(=O)CN(C1CCCN(c2ccc(-n3ccccc3=O)cc2F)C1=O)S(=O)(=O)c1cc2ccc(Cl)nc2s1 (stereo not drawn)", "quantityUnit": "nM", "operatorSymbol": "=", "Ki": 0.037}
{"compound": "COCCC1(C(=O)Nc2ccc(-c3ccccc3S(N)(=O)=O)cc2)CC(c2cccc(C(=N)N)c2)=NO1 (stereo not drawn)", "quantityUnit": "nM", "operatorSymbol": "=", "Ki": 5}
{"compound": "Cc1cccc2c1cc(C(=O)OCc1cccc(C(=N)N)c1)n2Cc1cccc(C(=N)N)c1", "quantityUnit": "nM", "operatorSymbol": "=", "Ki": 44}
{"compound": "CN(CC(=O)N[C@@H](CCCCN)B(O)O)C(=O)c1ccccc1Sc1ccccc1", "quantityUnit": "nM", "operatorSymbol": "=", "Ki": 17}
{"compound": "CC(C)(C)OC(=O)N[C@H](Cc1ccc(Cl)c(Cl)c1)C(=O)N1CCC[C@H]1C(=O)NCC1CCc2nc(N)ncc2C1 (stereo partly drawn)", "quantityUnit": "nM", "operatorSymbol": ">", "Ki": 75400}

* * *

Header: pKi / Coagulation factor X (Homo sapiens) / multiple publications
pKi: −log10 of the molar value.

{"testSmiles": "Cc1ccc(NC(=O)c2sccc2Cl)c(C(=O)Nc2ccc(F)cc2)c1", "operatorSymbol": "=", "pKi": 6.41}
{"testSmiles": "Nc1noc2ccc(-n3nc(C(F)(F)F)cc3C(=O)N3CCc4cc(-c5ccccc5CN5CCCC5)ccc43)cc12", "operatorSymbol": "=", "pKi": 8.31}
{"testSmiles": "NC[C@H]1CC[C@H](C(=O)N[C@@H](Cc2ccccc2)c2nc(-c3ccc4c(N)n[nH]c4c3)c(F)[nH]2)CC1.O=C(O)C(F)(F)F", "operatorSymbol": "<", "pKi": 5.09}
{"testSmiles": "CCOC(=O)Cc1cccc(-c2c[nH]c([C@H](Cc3ccccc3)NC(=O)[C@H]3CC[C@H](CN)CC3)n2)c1", "operatorSymbol": "<", "pKi": 5.09}
{"testSmiles": "Cc1c(F)c(Nc2cccc(C(=N)N)c2)nc(Oc2cccc(C(=N)N)c2)c1F", "operatorSymbol": "=", "pKi": 6.18}
{"testSmiles": "Cc1cc2nc(CCNC(=O)c3ccc(-n4cnnc4)cc3)[nH]c2cc1C", "operatorSymbol": "<", "pKi": 4.20}
{"testSmiles": "COc1c(Oc2nc(Oc3cccc(C(=N)N)c3)c(F)c(C)c2F)cccc1C(=O)N(C)C", "operatorSymbol": "=", "pKi": 5.62}
{"testSmiles": "CCOC(=O)c1nn(-c2ccc(OC)cc2)c2c(=O)n(-c3ccc(-c4ccccc4CN4CCCC4)cc3)cnc12", "operatorSymbol": "=", "pKi": 8.42}
{"testSmiles": "N=C(N)c1cccc(CN2CC[C@H](NS(=O)(=O)c3cccc(-c4ccccc4)c3)C2=O)c1", "operatorSymbol": "=", "pKi": 6.36}
{"testSmiles": "COC(=O)CN(Cc1cc[n+](C)cc1)C(=O)c1cc2ccccc2n1Cc1cccc(C(=N)N)c1", "operatorSymbol": "=", "pKi": 6.77}
{"testSmiles": "COc1cccc([C@H](C)NC(=O)CNC(=O)Nc2ccc(C(=N)N)cc2)c1", "operatorSymbol": "<", "pKi": 5.00}
{"testSmiles": "Cc1c(F)c(Oc2cccc(C(=N)N)c2)nc(Oc2cc(O)cc(C(=O)N(C)C)c2)c1F", "operatorSymbol": "<", "pKi": 5.30}
{"testSmiles": "COC(=O)[C@H]1CN(Cc2ccc(-c3ccccc3S(N)(=O)=O)cc2)C[C@@H]1c1cccc(C(=N)N)c1", "operatorSymbol": "=", "pKi": 7.89}
{"testSmiles": "N=C(N)c1cccc(CN2C[C@@H](NS(=O)(=O)c3ccc4ccccc4c3)CC2=O)c1", "operatorSymbol": "=", "pKi": 5.01}
{"testSmiles": "CC(C)(C)NC(=O)NC1CCN(C(=O)[C@H](Cc2cccc(C(=N)N)c2)NS(=O)(=O)c2cccc(-c3ccc(CN)cc3)c2)CC1", "operatorSymbol": "=", "pKi": 8.00}
{"testSmiles": "CCOC(=O)N1C/C(=C/c2ccc(C(=N)N)cc2)C(=O)/C(=C\\c2ccc(C(=N)N)cc2)C1", "operatorSymbol": "=", "pKi": 8.60}
{"testSmiles": "COc1ccc(-n2nc(S(C)(=O)=O)c3c2C(=O)N(c2ccc(C(C)(C)CN(C)C)cc2)CC3)cc1", "operatorSymbol": "=", "pKi": 9.96}

* * *

Header: Ki / UniProtKB P00742 / multiple publications
quantity: Ki (nM)

{"compound": "COc1ccc(-n2nc(C(N)=O)c3ncn(-c4ccc(-c5ccccc5S(N)(=O)=O)cc4F)c(=O)c32)cc1", "operatorSymbol": "=", "valueReported": 1.2}
{"compound": "Cc1cc2ccc1[C@@H](C)COC(=O)Nc1ccc(C3(C(=O)O)CCOCC3)c(c1)CN(C)C(=O)[C@@H]2Nc1ccc2c(N)ncc(F)c2c1", "operatorSymbol": "=", "valueReported": 1400}
{"compound": "CCOC(=O)C(=O)N(Cc1cc(F)cc(F)c1)c1ccc2c(c1)OC(C)(COc1ccc(C(=N)N)cc1)CN2C (centres undefined)", "operatorSymbol": "=", "valueReported": 790}
{"compound": "CSc1ncc(Cl)c(C(=O)Nc2ccc(C)cc2C(=O)Nc2ccc(Cl)cc2)n1", "operatorSymbol": ">", "valueReported": 5000}

* * *

Header: pKi / Coagulation factor X (Homo sapiens, UniProt P00742) / multiple publications
pKi: −log10 of the molar value.

{"testSmiles": "CC[C@H](C)[C@H]1NC(=O)C[C@H](Cc2cccc(CN)c2)NC(=O)[C@@H]2CCCN2C(=O)[C@@H](NC(=O)CCCCCN)CNC(=O)/C=C/[C@H](Cc2ccc(O)cc2)NC1=O", "operatorSymbol": "=", "pKi": 3.44}
{"testSmiles": "CCCS(=O)(=O)N[C@@H](C(=O)N[C@@H](CCSC)C(=O)NCc1ccc(C(=N)N)cc1)[C@@H](C)O", "operatorSymbol": "=", "pKi": 4.60}
{"testSmiles": "CN(C)C(=O)[C@@H]1CN(Cc2ccc(-c3ccccc3S(N)(=O)=O)cc2)C[C@H]1c1cccc(C(=N)N)c1", "operatorSymbol": "=", "pKi": 6.40}
{"testSmiles": "O=C(Nc1cccc(OCc2cccc(Br)c2)c1)C1CCN(c2ccncc2)CC1", "operatorSymbol": "=", "pKi": 5.20}
{"testSmiles": "CC1(C)[C@@H]2C[C@H]3OB([C@H](CCCCN)NC(=O)Cn4nc(CS(C)(=O)=O)nc4Cc4ccccc4)O[C@@]3(C)[C@H]1C2", "operatorSymbol": "<", "pKi": 5.22}
{"testSmiles": "CCOC(=O)[C@@H]1C[C@@H](Oc2c(F)c(Oc3cccc(C(=O)N(C)C)c3)nc(Oc3cc(C(=N)N)ccc3O)c2F)CN1", "operatorSymbol": "=", "pKi": 9.15}
{"testSmiles": "CSCc1csc(C(=O)Nc2ccc(Cl)cc2C(=O)Nc2ccc(Cl)cc2)c1Cl", "operatorSymbol": "=", "pKi": 9.10}
